# TARGET_OR_TEST_SYSTEM: Cholinesterase (Homo sapiens, UniProt P06276)
# Sequence (P06276 whole entry): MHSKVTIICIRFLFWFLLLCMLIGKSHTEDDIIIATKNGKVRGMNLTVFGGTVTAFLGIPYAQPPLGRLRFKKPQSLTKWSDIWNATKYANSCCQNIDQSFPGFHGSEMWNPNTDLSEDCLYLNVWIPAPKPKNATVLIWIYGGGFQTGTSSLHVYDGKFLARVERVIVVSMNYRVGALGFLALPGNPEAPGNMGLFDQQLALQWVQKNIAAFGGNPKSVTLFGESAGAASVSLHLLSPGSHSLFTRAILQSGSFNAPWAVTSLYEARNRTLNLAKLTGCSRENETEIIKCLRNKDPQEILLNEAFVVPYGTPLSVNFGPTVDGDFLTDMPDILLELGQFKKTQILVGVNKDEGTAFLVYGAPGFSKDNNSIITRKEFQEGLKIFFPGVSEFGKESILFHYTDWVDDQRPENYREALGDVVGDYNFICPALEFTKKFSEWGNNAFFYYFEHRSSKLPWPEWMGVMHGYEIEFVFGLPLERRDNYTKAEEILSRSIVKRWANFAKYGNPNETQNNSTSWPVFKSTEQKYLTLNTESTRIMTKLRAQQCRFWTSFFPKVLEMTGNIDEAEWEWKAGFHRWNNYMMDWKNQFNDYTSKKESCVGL
ASSAY_READOUT: pIC50
Reminder that pIC50 means the negative base-10 logarithm of the concentration expressed in mol/L.

Bench note: what pIC50 did CCCCCCCNC(=O)Oc1ccc2c(c1)CN(C)C(c1cccs1)N2C (stereo unspecified) show? 7.89

---

# TARGET_OR_TEST_SYSTEM: Cholinesterase (Equus caballus) (UniProt P81908)
# Sequence (P81908 whole entry): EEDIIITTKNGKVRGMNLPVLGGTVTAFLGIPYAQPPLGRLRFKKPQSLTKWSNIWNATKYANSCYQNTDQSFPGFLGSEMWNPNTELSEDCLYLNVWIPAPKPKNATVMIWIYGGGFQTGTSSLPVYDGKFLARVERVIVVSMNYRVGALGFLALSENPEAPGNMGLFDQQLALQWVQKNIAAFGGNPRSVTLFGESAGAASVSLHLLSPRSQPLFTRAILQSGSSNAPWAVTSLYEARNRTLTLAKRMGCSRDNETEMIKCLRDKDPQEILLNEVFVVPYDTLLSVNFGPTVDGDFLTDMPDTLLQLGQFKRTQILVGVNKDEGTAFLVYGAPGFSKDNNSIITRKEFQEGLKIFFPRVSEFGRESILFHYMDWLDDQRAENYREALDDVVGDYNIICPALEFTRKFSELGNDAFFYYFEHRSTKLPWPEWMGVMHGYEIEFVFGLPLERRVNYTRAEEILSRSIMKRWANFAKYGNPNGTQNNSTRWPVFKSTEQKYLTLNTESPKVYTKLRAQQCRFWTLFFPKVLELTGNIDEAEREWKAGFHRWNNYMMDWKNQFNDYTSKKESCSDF
# ASSAY_NOTES: Pseudo-irreversible inhibition of equine serum butyrylcholinesterase assessed as ratio of carbamoylation rate of inhibitor to apparent affinity between enzyme and inhibitor at equilibrium state using p-nitrophenyl butyrate as substrate preincubated for 5 to 40 mins followed by substrate addition by double reciprocal plot analysis
ASSAY_READOUT: log10(Ratio) (log10 of the value in µM⁻¹ min⁻¹)
Heads up, the numbers here are log10 of Ratio in µM⁻¹ min⁻¹ units.

Bench note: what log10(Ratio) did CCCCCCCNC(=O)Oc1ccc2c(c1)CN(C)C(c1c(Cl)cccc1Cl)N2C (stereo unspecified) show? -1.22

Repeat for the following compound: CCCCCCCNC(=O)Oc1ccc2c(c1)CN(C)C(c1ccc(F)cc1)N2C (stereo unspecified) 0.76

Repeat for the following compound: CCCCCCCNC(=O)Oc1ccc2c(c1)CN(C)C(c1cccs1)N2C (stereo unspecified) 0.99

Repeat for the following compound: CCCCCCCNC(=O)Oc1ccc2nc(-c3ccccc3)ncc2c1 -0.89

Repeat for the following compound: CCCCCCCNC(=O)Oc1ccc2c(c1)CN(C)C(c1cccc(OC)c1)N2C (stereo unspecified) -0.54

Repeat for the following compound: CCCCCCCNC(=O)Oc1ccc2c(c1)CN(C)C(c1cccc(Cl)c1)N2C (stereo unspecified) -0.15

Repeat for the following compound: CCCCCCCNC(=O)Oc1ccc2c(c1)CN(C)C(c1ccccc1)N2C (stereo unspecified) -0.24

Repeat for the following compound: CCCCCCCNC(=O)Oc1ccc2c(c1)CN(C)C(c1cccc3ccccc13)N2C (stereo unspecified) 0.28

Repeat for the following compound: CCCCCCCNC(=O)Oc1ccc2c(c1)CN(C)C(c1ccc(C(F)(F)F)cc1)N2C (stereo unspecified) -1.15

Repeat for the following compound: CCCCCCCNC(=O)Oc1ccc2c(c1)CN(C)C(c1ccc(OC)cc1)N2C (stereo unspecified) -0.70

Repeat for the following compound: CCCCCCCNC(=O)Oc1ccc2c(c1)CN(C(C)C)C(c1ccccc1)N2C (stereo unspecified) -0.07

---

Assignment: determine reported K for the given molecules.
# TARGET_OR_TEST_SYSTEM: Cholinesterase (Equus caballus) (UniProt P81908)
# ASSAY_NOTES: Pseudo-irreversible inhibition of equine serum butyrylcholinesterase assessed as carbamoylation rate of inhibitor from reversible enzyme inhibitor complex to carbamoylated enzyme using p-nitrophenyl butyrate as substrate preincubated for 5 to 40 mins followed by substrate addition by double reciprocal plot analysis
Reply with the number, then its unit.

Bench note: what K did CCCCCCCNC(=O)Oc1ccc2c(c1)CN(C)C(c1c(Cl)cccc1Cl)N2C (configuration not stated) show? 0.23 min⁻¹

Repeat for the following molecule: CCCCCCCNC(=O)Oc1ccc2c(c1)CN(C)C(c1ccc(C(F)(F)F)cc1)N2C (configuration not stated) 0.05 min⁻¹

Repeat for the following molecule: CCCCCCCNC(=O)Oc1ccc2c(c1)CN(C)C(c1cccc3ccccc13)N2C (configuration not stated) 0.03 min⁻¹

Repeat for the following molecule: CNC(=O)Oc1ccc2c(c1)[C@]1(C)CCN(C)[C@@H]1N2C 0.3 min⁻¹

Repeat for the following molecule: CCCCCCCNC(=O)Oc1ccc2c(c1)CN(C)C(c1cccs1)N2C (configuration not stated) 0.14 min⁻¹

Repeat for the following molecule: CCCCCCCNC(=O)Oc1ccc2c(c1)CN(C(C)C)C(c1ccccc1)N2C (configuration not stated) 0.16 min⁻¹

Repeat for the following molecule: CCCCCCCNC(=O)Oc1ccc2c(c1)CN(C)C(c1cccc(Cl)c1)N2C (configuration not stated) 0.16 min⁻¹
